Assay: HTRF signal interference by compounds, confirmation, artefact control for SUMOylation inhibitor project, biochemical, uHTS (AID 2069)
Conditions: HTRF interference counterscreen, fluorescence, at 35 µM, stronger effect = higher value
In all, about 1,200 compounds went through this assay and about 210 (18%) were called active. Only a sample is shown.
parameter_measured: inhibition (%)

In [3]: df
Out[3]:
                                        smi  result_unit  endpoint_result
0  Cc1ccc(-n2c(SCC(=O)N/N=C/c3ccccc3C(=O)O)nnc2-c2ccc(Cl)cc2)cc1            %             5.25
1      O=C1C=C(Nc2ccccc2C(=O)O)c2ccccc2C1=O            %            -7.25
2        CCN(c1ccccc1)c1cc2ccccc2c(=O)[nH]1            %               37

* * *

Experiment: HTRF signal interference by compounds, confirmation, artefact control for SUMOylation inhibitor project, biochemical, uHTS (AID 2069)
Details: HTRF interference counterscreen, fluorescence, at 35 µM, stronger effect = higher value
Out of some 1,200 compounds screened, about 210 (18%) were called active. Only a sample is shown.
parameter_measured: inhibition (%)

>>> df
                                    compound  endpoint_result
 0  Cc1ccc(S(=O)(=O)C(C#N)c2nc3ccccc3nc2N2CCCC2)cc1 (stereo not given)             -7.1
 1  COc1ccc(S(=O)(=O)C(C#N)c2nc3ccccc3nc2N2CCCCC2)cc1 (stereo not given)            -7.95
 2  COc1cc([N+](=O)[O-])cc(/C=N/NC(=O)CC#N)c1O             21.6
 3        O=S(=O)(Nc1ccc(O)c2ccccc12)c1cccs1            -16.9
 4  CC1=NN(c2ccc(C)cc2C)C(=O)C1C(c1cccc(O)c1)C1C(=O)N(c2ccc(C)cc2C)N=C1C (stereo not given)             -2.1
 5  Cc1c(CC(=O)N2CCN(C(=O)C3COc4ccccc4O3)CC2)c(=O)oc2c(C)c(O)ccc12 (stereo not given)             66.6
 6  CC(NC(=O)Nc1ccc(O)cc1)(C(F)(F)F)C(F)(F)F             1.45
 7  COCCn1c(N)c(C(=O)OCc2ccccc2)c2nc3ccccc3nc21               16
 8  CC(C)(C)OC(=O)c1c(N)n(CCCN2CCCC2=O)c2nc3ccccc3nc12             41.4
 9                    O=C(Nc1ccccc1)Nc1ccno1             47.1
10          CN(C)C=Nc1ccc2nn(-c3ccccc3)nc2c1             58.8
11  Cc1ccc(/C=C2\SC(=S)N(/N=C/c3cc([N+](=O)[O-])ccc3O)C2=O)o1            -7.65
12  CCOc1ccc(/C=C2/SC(=S)N(CCC(=O)Nc3ccc(C(=O)O)cc3)C2=O)cc1             4.55
13           Nc1ccc2nn(-c3cccc4ccccc34)nc2c1             64.5
14                 Cc1ccc(NC(=O)Nc2ccno2)cc1             48.2
15  Cc1c(CC(=O)O)c(=O)oc2c(C)c(OCc3ccccc3Br)ccc12            -1.95
16  CCCS(=O)(=O)c1c(S(=O)(=O)CCC)c2c(N)cccn2c1C(=O)c1ccc(Br)cc1              6.7
17  Cc1cc(=O)oc2cc(OCc3ccc(C(=O)OCC(=O)Nc4ccc(N(C)C)cc4)cc3)ccc12             11.7
18  CCOC(=O)c1c(C)oc2c1c(C=NCCC(=O)O)c(O)c1ccccc12            -7.35
19             Oc1ccc(NC(=S)Nc2ccc(O)cc2)cc1             19.6
20  O=C(COc1ccc(Cl)cc1)Nc1nnc(-c2ccc3c(c2)CCCC3)o1            -7.05
21  Cc1ccc(CSc2nnc(SCC(=O)N/N=C/c3c[nH]c4ccccc34)s2)cc1             -3.9
22  CSc1nnc(SCc2nc3sc(C(=O)O)c(C)c3c(=O)[nH]2)s1             31.2
23     O=C(/C=C/c1ccco1)NC(=S)NNC(=O)c1ccco1            -18.9
24          CCc1nc2sc(C(C)=O)c(N)c2c2c1CCCC2             9.65
25  S=c1[nH]nc(-c2cc(-c3ccco3)[nH]n2)n1-c1cccc2ccccc12            -16.1
26  COc1cccc(C(c2c(C)[nH]n(-c3ccccc3)c2=O)c2c(C)[nH]n(-c3ccccc3)c2=O)c1OC            -27.4
27  COc1ccc(C(c2c(C)[nH]n(-c3ccccc3)c2=O)c2c(C)[nH]n(-c3ccccc3)c2=O)cc1OC             13.3
28  CCC(NC(=O)Nc1ccc(O)cc1)(C(F)(F)F)C(F)(F)F             -9.2
29  CCOC(=O)c1c(-c2ccccc2)oc2ccc(OC(C)C(=O)O)cc12 (stereo not given)             58.6
